Target: NS3/4A protease gt 1b A156V (Hepatitis C virus genotype 1b, UniProt P26663, A1182V)
Assay: HCV NS3 protease time-resolved fluorescence (TRF) assay, NS3/4A inhibitory activity (Ki), gt 1b A156V mutant
Description: The HCV NS3 protease inhibitory activity of the present compounds may be tested using assays known in the art. One such assay is HCV NS3 protease time-resolved fluorescence (TRF) assay as described below and in International Patent Application Publication WO2006/102087. Other examples of such assays are described in e.g., International Patent Application Publication WO2005/046712. […] Ki is determined by an NS3 protease assay. […]
pKi: −log10 of the molar value.
Mark criterion met for reported pKi of 9 or greater; mark criterion not met for anything smaller.

Answered cases to consult:
Query: Does pKi meet or surpass 9 for `C=C[C@@H]1C[C@]1(NC(=O)[C@@H]1C[C@@H]2CN1C(=O)[C@H](C(C)(C)C)NC(=O)O[C@]1(C)C[C@H]1CC/C=C/c1cccc3c1CN(C3)C(=O)O2)C(=O)NS(=O)(=O)C1CC1` ?
Reply: criterion not met

Query: Does pKi meet or surpass 9 for `C=C[C@@H]1C[C@]1(NC(=O)[C@@H]1C[C@@H]2CN1C(=O)[C@H](C(C)(C)C)NC(=O)O[C@]1(C)C[C@H]1CCCCCc1nc3ccccc3nc1O2)C(=O)NS(=O)(=O)C1CC1` ?
Reply: criterion not met

Query: Does pKi meet or surpass 9 for `C=C[C@@H]1C[C@]1(NC(=O)[C@@H]1C[C@@H]2CN1C(=O)[C@H](C1CCCC1)NC(=O)O[C@@]1(C)C[C@@H]1CC/C=C/Cn1c(nc3cc(Cl)ccc3c1=O)O2)C(=O)NS(=O)(=O)C1CC1` ?
Reply: criterion not met

Consider the additional compound presented here.
Query: Does pKi meet or surpass 9 for `C=C[C@@H]1C[C@]1(NC(=O)[C@@H]1C[C@@H]2CN1C(=O)[C@H](C1CCCC1)NC(=O)O[C@]1(C)C[C@H]1CCCCCc1cccc3c1CN(C3)C(=O)O2)C(=O)NS(=O)(=O)C1CC1` ?
Reply: criterion met
